Entries and their IC50 values follow.
# Test system: RNA polymerase II Serine 5 phosphorylation (Rpb1 CTD), downstream substrate of CDK7
# assayInfo: Imaging-based cellular RNA PolII Ser5 phosphorylation assay in A549 cells
# Format: cell-based, human
# conditionContext: Homo sapiens, A549, 3 h, challenged with compound for 3 hours, read-out: pRNA polII Ser5 (A549) pIC50 (converted)
measurementKind: IC50 (nM)

INSERT INTO results (compound, endpointunit, number) VALUES
  ('C[C@@H]1Cc2cnc(N[C@@H]3COc4ccccc43)nc2CN1C(=O)[C@H]1CCN(C)C[C@@H]1c1ccccc1 (relative stereo)', 'nM', 490),
  ('C[C@@H]1Cc2cnc(NCc3cc[nH]n3)nc2CN1C(=O)[C@H]1CCN(C)C[C@@H]1c1ccccc1', 'nM', 1320),
  ('Cc1cccc([C@@H]2CN(C)CC[C@H]2C(=O)N2Cc3nc(Nc4cnn(C)c4)ncc3[C@@H]3C[C@@H]32)c1 (relative stereo)', 'nM', 6920);

====

# measurementTarget: CDK7/Cyclin H/MAT-1 complex (Homo sapiens)
# Construct: Human CDK7 (amino acids 1-346); His6 (N); TEV protease cleavage site (N); made in house; host or cells: baculovirus-SF9 insect cells
# Sequence (P50613 whole entry, the tested form may be a part): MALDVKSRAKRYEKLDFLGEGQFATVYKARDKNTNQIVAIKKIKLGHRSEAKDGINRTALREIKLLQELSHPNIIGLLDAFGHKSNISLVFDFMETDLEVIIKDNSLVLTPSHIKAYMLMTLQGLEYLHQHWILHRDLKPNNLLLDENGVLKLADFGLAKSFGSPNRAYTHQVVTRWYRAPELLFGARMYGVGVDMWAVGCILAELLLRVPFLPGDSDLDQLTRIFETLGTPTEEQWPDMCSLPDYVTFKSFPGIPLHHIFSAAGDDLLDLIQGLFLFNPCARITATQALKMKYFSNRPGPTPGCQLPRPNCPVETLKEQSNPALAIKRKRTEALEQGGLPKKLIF
# Sequence (P51946 whole entry partner, the tested form may be a part): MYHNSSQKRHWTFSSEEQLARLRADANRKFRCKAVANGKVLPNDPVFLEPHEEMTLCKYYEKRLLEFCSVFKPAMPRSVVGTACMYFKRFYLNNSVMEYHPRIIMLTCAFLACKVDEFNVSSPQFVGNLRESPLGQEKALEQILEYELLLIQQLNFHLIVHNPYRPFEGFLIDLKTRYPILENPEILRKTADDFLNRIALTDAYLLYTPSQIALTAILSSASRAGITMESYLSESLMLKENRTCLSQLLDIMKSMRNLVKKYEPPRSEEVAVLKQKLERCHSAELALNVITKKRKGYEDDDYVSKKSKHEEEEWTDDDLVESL
# Sequence (P51948 whole entry partner, the tested form may be a part): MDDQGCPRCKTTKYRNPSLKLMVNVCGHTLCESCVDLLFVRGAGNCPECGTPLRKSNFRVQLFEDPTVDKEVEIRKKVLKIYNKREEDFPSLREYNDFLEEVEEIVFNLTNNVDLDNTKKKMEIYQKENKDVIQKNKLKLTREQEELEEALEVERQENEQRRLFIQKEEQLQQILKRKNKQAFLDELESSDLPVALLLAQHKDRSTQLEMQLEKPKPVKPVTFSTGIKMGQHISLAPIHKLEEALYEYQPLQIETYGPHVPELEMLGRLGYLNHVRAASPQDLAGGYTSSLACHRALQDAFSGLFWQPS
# assayInfo: Absorbance kinetic assay (20 nM CDK7/Cyclin H/MAT-1 complex)
# Assay type: biochemical
# conditionContext: read-out: CDK7 (20 nM) pIC50 (converted)
measurementKind: IC50 (nM)

INSERT INTO assay_data (molecule, measurementkind, operator, number) VALUES
  ('Cc1cc([C@@H]2CN(C)CC[C@H]2C(=O)N2Cc3nc(NC4CCOCC4)ncc3C[C@H]2C)ccn1 (relative stereo)', 'IC50', '=', 105),
  ('C[C@@H]1C[C@H](C(=O)N2Cc3nc(NC4CCOCC4)ncc3C[C@H]2C)[C@@H](c2ccccc2)CN1C (relative stereo) [Compound 170a]', 'IC50', '=', 794),
  ('C[C@@H]1Cc2cnc(N[C@H]3CCOC4(CCC4)C3)nc2CN1C(=O)[C@H]1CCN(C)C[C@@H]1c1ccccc1 (relative stereo)', 'IC50', '<', 9.77),
  ('C[C@@H]1Cc2cnc(NCc3ccccc3)nc2CN1C(=O)[C@H]1CCN(C)C[C@@H]1C(F)(F)F (relative stereo)', 'IC50', '=', 2950),
  ('C[C@@H]1Cc2cnc(N[C@@H]3CCN(C)C(=O)C3)nc2CN1C(=O)[C@H]1CCN(C)C[C@@H]1c1ccccc1 (relative stereo)', 'IC50', '=', 35.5),
  ('C[C@H](Nc1ncc2c(n1)CN(C(=O)[C@H]1CCN(C)C[C@@H]1c1ccccc1)[C@H](C)C2)c1ccn(C)n1 (single isomer, unassigned)', 'IC50', '=', 141),
  ('C[C@@H]1Cc2cnc(NC[C@@H]3CCCO3)nc2CN1C(=O)[C@H]1CCN(C)C[C@@H]1c1ccccc1', 'IC50', '<', 9.77),
  ('C[C@@H]1Cc2cnc(NC3CCOCC3)nc2CN1C(=O)[C@H]1CCN(C)C[C@@H]1c1cccc(F)c1 (relative stereo)', 'IC50', '=', 12.3),
  ('C[C@@H]1Cc2cnc(NC3CCOCC3)nc2CN1C(=O)[C@H]1CCN(C)C[C@@H]1C1CCOCC1 (relative stereo)', 'IC50', '=', 120),
  ('C[C@@H]1Cc2cnc(NC3CCOCC3)nc2[C@H](C)N1C(=O)[C@H]1CCN(C)C[C@@H]1c1ccccc1 (single isomer, unassigned) [Compound 195b]', 'IC50', '<', 9.77),
  ('C[C@@H]1Cc2cnc(NC3CCOCC3)nc2CN1C(=O)[C@H]1CCN(C)C[C@@H]1C (relative stereo)', 'IC50', '=', 11.5),
  ('CO[C@H]1CC[C@H](Nc2ncc3c(n2)CN(C(=O)[C@@H]2CCN(C)C[C@H]2c2ccnc(C)c2)[C@H](C)C3)CC1 (relative stereo)', 'IC50', '<', 9.77),
  ('C[C@@H]1Cc2cnc(NCc3ccn(C)n3)nc2CN1C(=O)[C@H]1CCN(C)C[C@@H]1c1ccccc1F (relative stereo)', 'IC50', '=', 61.7),
  ('C[C@@H]1c2nc(NC3CCOCC3)ncc2CCN1C(=O)[C@H]1CCN(C)C[C@@H]1c1ccccc1 (relative stereo)', 'IC50', '>', 10000),
  ('C[C@@H]1Cc2cnc(N[C@H]3CCC(=O)N(C)C3)nc2CN1C(=O)[C@H]1CCN(C)C[C@@H]1c1ccccc1 (relative stereo)', 'IC50', '<', 9.77),
  ('C[C@@H]1Cc2cnc(NC3CCOCC3)nc2[C@@H](C)N1C(=O)[C@H]1CCN(C)C[C@@H]1c1ccccc1 (single isomer, unassigned) [Compound 195a]', 'IC50', '=', 4680),
  ('C[C@@H]1Cc2cnc(NC3CCOCC3)nc2CN1C(=O)[C@H]1CCN(C)C[C@@H]1c1ccc(Cl)cc1 (relative stereo)', 'IC50', '=', 9.77),
  ('C[C@H]1Cc2cnc(Nc3cnn(C)c3)cc2CN1C(=O)[C@H]1CCN(C)C[C@@H]1c1ccccc1 (relative stereo)', 'IC50', '=', 22.9),
  ('C[C@@H]1Cc2cnc(NCc3cc[nH]n3)nc2CN1C(=O)[C@H]1CCN(C)C[C@@H]1c1ccccc1', 'IC50', '=', 51.3),
  ('C[C@@H]1Cc2cnc(NC3CCOCC3)nc2CN1C(=O)[C@H]1CCN(C)C[C@@H]1c1cccc(Cl)c1 (relative stereo)', 'IC50', '=', 72.4),
  ('CO[C@H]1CC[C@H](Nc2ncc3c(n2)CN(C(=O)[C@H]2CCN(C)C[C@@H]2c2ccc(C)nc2)[C@H](C)C3)CC1 (relative stereo)', 'IC50', '<', 9.77),
  ('CO[C@H]1CC[C@H](Nc2ncc3c(n2)CN(C(=O)[C@@H]2CCN(C)C[C@H]2c2ccc(C)nc2)[C@H](C)C3)CC1 (relative stereo)', 'IC50', '>', 10000),
  ('C[C@@H]1Cc2cnc(NC3CCOCC3)nc2CN1C(=O)[C@@H]1CCN(C)C[C@H]1c1cccnc1 (relative stereo)', 'IC50', '=', 16.2),
  ('C[C@@H]1Cc2cnc(N[C@H](C)c3ccn(C)n3)nc2CN1C(=O)[C@H]1CCN(C)C[C@@H]1c1ccccc1 (single isomer, unassigned)', 'IC50', '=', 12.3);

Entry source: patent US12679839B2
